These entries and their values trace back to patent US7956069B2.

target: hM5 (human Muscarinic receptor subtype 5) (Homo sapiens); test: Human M5 calcium mobilization FLIPR assay; settings: CHO cells expressing hM5, Ca2+ release
Sequence (P08912 whole entry): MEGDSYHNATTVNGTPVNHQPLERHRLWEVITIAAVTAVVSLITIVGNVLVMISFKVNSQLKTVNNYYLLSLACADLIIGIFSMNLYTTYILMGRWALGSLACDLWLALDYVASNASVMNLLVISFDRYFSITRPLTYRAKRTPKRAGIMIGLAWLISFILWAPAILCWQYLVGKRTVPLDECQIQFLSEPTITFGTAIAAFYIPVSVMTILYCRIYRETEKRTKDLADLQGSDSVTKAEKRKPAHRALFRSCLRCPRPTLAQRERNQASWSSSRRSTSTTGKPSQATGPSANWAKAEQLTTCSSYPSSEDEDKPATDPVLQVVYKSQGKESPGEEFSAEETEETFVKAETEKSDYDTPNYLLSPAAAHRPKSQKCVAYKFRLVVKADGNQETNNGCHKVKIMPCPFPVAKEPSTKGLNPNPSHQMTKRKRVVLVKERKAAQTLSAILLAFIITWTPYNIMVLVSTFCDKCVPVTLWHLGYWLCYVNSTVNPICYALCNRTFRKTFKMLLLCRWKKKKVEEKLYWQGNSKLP
MEASURED PARAMETER: EC50

// worked examples, EC50 included
In [3]: df
Out[3]:
                            molecule_smiles  measured_parameter  recorded_result
0  CCOC(=O)N1CC[C@H](N2CCC(N3C(=O)N[C@H]4CCCC[C@@H]43)CC2)C1                EC50           3.9 µM
1  O=C(C1CC1)N1CCC(N2CCC(N3C(=O)N[C@@H]4CCCC[C@H]43)CC2)CC1                EC50          > 40 µM
2  CC(C)OC(=O)N1CCC(N2CCC(N3C(=O)C[C@H]4CCCC[C@@H]43)CC2)CC1                EC50          > 40 µM

Consider the record given below.
Q: Item `COc1ccccc1C(=O)N1CCC(N2CCC(N3C(=O)N[C@@H]4CCCC[C@H]43)CC2)CC1` has what recorded EC50?
Result: > 40 µM
